System: P-glycoprotein 1 / MDR1 (Homo sapiens)
Experiment: Selectivity index, ratio of IC50 for chemosensitive mouse L5178Y cells to IC50 for chemoresistant mouse L5178Y cells expressing human MDR1 gene
Listing: selectivity ratio of selected molecules
# answer = number (no unit)

Sample records with selectivity ratio:
molecule: COc1ccc(C(=O)O[C@H]2[C@@H](C)C[C@]3(OC(C)=O)C(=O)/C(C)=C/[C@@H]4[C@H](CC/C(C)=C/[C@@H]23)C4(C)C)cc1 [JOLKINOATE K]
tgt: P-glycoprotein 1 / MDR1 (Homo sapiens)
endpoint: selectivity ratio
val: 0.7

molecule: CCC(=O)O[C@H]1[C@@H](C)C[C@]2(OC(C)=O)C(=O)/C(C)=C/[C@@H]3[C@H](CC/C(C)=C/[C@@H]12)C3(C)C [JOLKINOATE B]
tgt: P-glycoprotein 1 / MDR1 (Homo sapiens)
endpoint: selectivity ratio
val: 0.8

molecule: CC(=O)O[C@]12C[C@H](C)[C@H](OC(=O)c3ccccc3)[C@@H]1/C=C(\C)CC[C@H]1[C@@H](/C=C(\C)C2=O)C1(C)C [JOLKINOATE I]
tgt: P-glycoprotein 1 / MDR1 (Homo sapiens)
endpoint: selectivity ratio
val: 1

molecule: CCCC(C)C(=O)O[C@H]1[C@@H](C)C[C@]2(OC(C)=O)C(=O)/C(C)=C/[C@@H]3[C@H](CC/C(C)=C/[C@@H]12)C3(C)C (stereo not given in full) [JOLKINOATE E]
tgt: P-glycoprotein 1 / MDR1 (Homo sapiens)
endpoint: selectivity ratio
val: 0.9

Let us move to another entry and its selectivity ratio.
Please report the measured selectivity ratio for C/C1=C\[C@H]2[C@@H](O)[C@@H](C)C[C@]2(O)C(=O)/C(C)=C/[C@@H]2[C@H](CC1)C2(C)C [JOLKINODIOL]
0.7
